system_under_test: SHP2 (Homo sapiens (Human), UniProt Q06124)
Sequence (Q06124 whole entry): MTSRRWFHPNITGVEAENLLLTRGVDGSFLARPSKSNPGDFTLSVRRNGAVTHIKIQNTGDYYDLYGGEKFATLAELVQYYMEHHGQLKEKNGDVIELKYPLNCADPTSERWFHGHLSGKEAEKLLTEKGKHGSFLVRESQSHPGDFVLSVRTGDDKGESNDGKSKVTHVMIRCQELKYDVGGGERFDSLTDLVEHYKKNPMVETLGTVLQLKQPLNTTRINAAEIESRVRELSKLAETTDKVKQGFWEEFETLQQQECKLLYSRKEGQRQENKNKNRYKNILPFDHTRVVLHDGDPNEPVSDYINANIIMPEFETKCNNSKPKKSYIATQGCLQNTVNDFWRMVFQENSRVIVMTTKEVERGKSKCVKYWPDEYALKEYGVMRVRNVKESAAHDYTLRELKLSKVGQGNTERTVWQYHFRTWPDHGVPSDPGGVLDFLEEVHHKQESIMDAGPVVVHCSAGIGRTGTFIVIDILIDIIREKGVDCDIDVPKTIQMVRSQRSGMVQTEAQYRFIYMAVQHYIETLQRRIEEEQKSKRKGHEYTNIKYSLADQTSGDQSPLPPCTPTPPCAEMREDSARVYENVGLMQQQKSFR
procedure_details: SHP2 Allosteric Inhibition Assay
measurement_context: 0.5 nM SHP2 activated with 0.5 μM peptide IRS1_pY1172(dPEG8)pY1222; surrogate substrate DiFMUP; prompt fluorescence
experimental_readout: pIC50
Scale explanation: pIC50 corresponds to minus log10 of a concentration expressed in moles per litre.

Example entries and their recorded answers appear below.
compound: NCC1(F)CCN(c2cnc(Sc3cccc(NC(=O)c4c(O)nc5n(c4=O)CCCC5)c3Cl)c(N)n2)CC1 [Example 16]
readout_value: 8.10
//
compound: CC1(CN)CCN(c2nnc(Sc3cccc(NC(=O)c4c(O)nc5ccccn5c4=O)c3Cl)c(N)n2)CC1 [Example 33]
readout_value: 8.00
//
compound: CC1(N)CCN(c2cnc(Sc3cccc(NC(=O)C4=C(O)CN(c5ccccc5)C4=O)c3)c(N)n2)CC1 [Example 66]
readout_value: 7.77

Summary for this compound, Nc1nc(N2CCC3(CC2)COC[C@H]3N)cnc1Sc1cccc(NC(=O)c2c(O)nc3n(c2=O)CCCC3)c1Cl [Example 26] : pIC50 is 7.74

Summary for this compound, CNC1(C)CCN(c2cnc(Sc3cccc(NC(=O)C4=C(O)CN(c5ccccc5)C4=O)c3Cl)c(N)n2)CC1 [Example 56] : pIC50 is 8.18

Summary for this compound, CC1(CN)CCN(c2cnc(Sc3cccc(NC(=O)c4c(O)nc5n(c4=O)CCCC5)c3Cl)c(N)n2)CC1 [Example 7] : pIC50 is 8.22

Summary for this compound, CC1(N)CCN(c2cnc(Sc3cccc(NC(=O)c4c(O)nc5n(c4=O)CCCC5)c3Cl)cn2)CC1 [Example 44] : pIC50 is 7.85

----------
system_under_test: SHP2 (Homo sapiens (Human))
procedure_details: SHP2 Allosteric Inhibition Assay
measurement_context: 0.5 nM SHP2 activated with 0.5 μM peptide IRS1_pY1172(dPEG8)pY1222; surrogate substrate DiFMUP; prompt fluorescence
# Lookup of reported log10 of IC50 keyed by entry
Hi team, quick reminder: these entries are log10 of IC50 (nM).

Example entries and their recorded answers appear below.
compound_smiles: CC1(N)CCN(c2cnc(Sc3ccc(NC(=O)C4=C(O)CN(c5ccccc5)C4=O)cc3Cl)c(N)n2)CC1
log10 of IC50: 1.85

compound_smiles: CC1(CN)CCN(c2cnc(Sc3cccc(NC(=O)c4c(O)nc5cnccn5c4=O)c3Cl)c(N)n2)CC1
log10 of IC50: 0.48

compound_smiles: CC1(CN)CCN(c2nnc(Sc3cccc(NC(=O)c4c(O)nc5sccn5c4=O)c3Cl)c(N)n2)CC1
log10 of IC50: 0.90

compound_smiles: CC1(N)CCN(c2cnc(Sc3cccc(NC(=O)C4=C(O)CN(c5ccccc5)C4=O)c3Cl)c(N)n2)CC1
log10 of IC50: 0.64

compound_smiles: CC1(CN)CCN(c2cnc(Sc3cccc(NC(=O)c4c(O)nc5n(c4=O)CCCC5)c3Cl)cn2)CC1
log10 of IC50: 0.85

Summary for this molecule, CC1(N)CCN(c2nc3ccc(Sc4cccc(NC(=O)C5=C(O)CN(c6ccccc6)C5=O)c4)nc3[nH]2)CC1 : log10 of IC50 is 1.85

Summary for this molecule, CN1C(=O)C(C(=O)Nc2cccc(Sc3ccc4nc(N5CCCCC5)[nH]c4n3)c2Cl)=C(O)C1(C)C : log10 of IC50 is 1.62
